test: NCI Yeast Anticancer Drug Screen. Data for the bub3 strain (AID 167); details: S. cerevisiae bub3 mutant strain, at 50.0 µM, stronger effect = higher value
About 79,000 compounds went through this panel and 15% of them were active in at least one assay; those are over-represented in the sample as a whole.
Reported values of growth inhibition for individual entries

[
  {
    "COMPOUND": "CC1OC(OC2CCCc3c(O)c4c(c(O)c32)C(=O)c2ccccc2C4=O)CC(N)C1O (configuration not stated)",
    "growth inhibition / %": 52.8
  },
  {
    "COMPOUND": "CCCCCCCCCCCc1nc(N)n[nH]1",
    "growth inhibition / %": 95.8
  },
  {
    "COMPOUND": "Cc1cc(N=C2C=CC(=[N+](C)C)C=C2)c(N)cc1N",
    "growth inhibition / %": 62.6
  },
  {
    "COMPOUND": "Cc1c2cc[n+](CCN3CCCCC3)cc2c(C)c2c1[nH]c1ccc(O)cc12",
    "growth inhibition / %": 90.5
  },
  {
    "COMPOUND": "O=S(=O)(N/N=C/c1cccc(Cl)c1)c1ccccc1",
    "growth inhibition / %": 63.3
  },
  {
    "COMPOUND": "CC(C)c1[nH]nc(C(N)=O)c1N=NN(C)C",
    "growth inhibition / %": -4
  },
  {
    "COMPOUND": "O=C1C=CC(=O)N1c1ccc(I)cc1",
    "growth inhibition / %": 92.4
  },
  {
    "COMPOUND": "COc1ccc2oc(-c3ccc(Cl)cc3)c(N3CCN(C)CC3)c2c1",
    "growth inhibition / %": 62.1
  },
  {
    "COMPOUND": "N#CC(=S)Nc1cccc(Cl)c1",
    "growth inhibition / %": 51.3
  },
  {
    "COMPOUND": "Nc1ccc2c(=S)c3ccccc3[nH]c2c1",
    "growth inhibition / %": 47.5
  },
  {
    "COMPOUND": "CN(C)Cc1cccc(CN(C)C)[c]1[Sn]([Br])([c]1ccccc1)[c]1ccccc1",
    "growth inhibition / %": 88.8
  },
  {
    "COMPOUND": "O=C1c2ccccc2CCC1(Br)Br",
    "growth inhibition / %": 99.2
  }
]

###

Reported values of growth inhibition for individual entries
test: NCI Yeast Anticancer Drug Screen. Data for the rad50EPP+ strain (AID 151);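 note: 0% = growth of vehicle-treated control cultures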; conditions: S. cerevisiae rad50 mutant strain, at 3.7 µM, stronger effect = higher value
The panel holds about 79,000 compounds, 15% with a hit somewhere; the sample as a whole holds those more often.
MEASURED_PROPERTY: growth inhibition (%)

[
  {
    "COMPOUND": "COc1ccc(/C=C2\\SC(=S)N(C=C3C(=O)NC(=S)NC3=O)C2=O)cc1OC",
    "MEASURED_PROPERTY": "growth inhibition",
    "UNIT_TAG": "%",
    "VALUE_OBSERVED": 7
  },
  {
    "COMPOUND": "OB(O)c1ccccc1C#Cc1ccccc1B(O)O",
    "MEASURED_PROPERTY": "growth inhibition",
    "UNIT_TAG": "%",
    "VALUE_OBSERVED": 6
  },
  {
    "COMPOUND": "CC[C@@]1(OC(=O)CN(C)C)C(=O)OCc2c1cc1n(c2=O)Cc2cc3c(N)cccc3nc2-1",
    "MEASURED_PROPERTY": "growth inhibition",
    "UNIT_TAG": "%",
    "VALUE_OBSERVED": 22
  },
  {
    "COMPOUND": "Cc1cccc2c1N=C(C(F)(F)F)CC2=O",
    "MEASURED_PROPERTY": "growth inhibition",
    "UNIT_TAG": "%",
    "VALUE_OBSERVED": 3
  },
  {
    "COMPOUND": "CCN1/C(=C/c2ccc3ccccc3[n+]2CC)C=Cc2ccccc21",
    "MEASURED_PROPERTY": "growth inhibition",
    "UNIT_TAG": "%",
    "VALUE_OBSERVED": 6
  },
  {
    "COMPOUND": "[Pt].c1ccc(P(CCP(c2ccccc2)c2ccccc2)CCP(c2ccccc2)c2ccccc2)cc1",
    "MEASURED_PROPERTY": "growth inhibition",
    "UNIT_TAG": "%",
    "VALUE_OBSERVED": -1
  },
  {
    "COMPOUND": "OCCN(CCO)c1ccc2c(c1)Cc1ccccc1-2",
    "MEASURED_PROPERTY": "growth inhibition",
    "UNIT_TAG": "%",
    "VALUE_OBSERVED": -3
  },
  {
    "COMPOUND": "NC(N)=N/N=C/c1cc(Cl)cc(Cl)c1O",
    "MEASURED_PROPERTY": "growth inhibition",
    "UNIT_TAG": "%",
    "VALUE_OBSERVED": 49
  },
  {
    "COMPOUND": "O=C1C=CC(=Nc2ccccc2)c2ccccc21",
    "MEASURED_PROPERTY": "growth inhibition",
    "UNIT_TAG": "%",
    "VALUE_OBSERVED": 8
  },
  {
    "COMPOUND": "OCCNCCOc1ccc(/C(=C(/Cl)c2ccccc2)c2ccccc2)cc1",
    "MEASURED_PROPERTY": "growth inhibition",
    "UNIT_TAG": "%",
    "VALUE_OBSERVED": -28
  },
  {
    "COMPOUND": "CC1(C)C(C=O)=CCC1CC(N)=O (stereo not drawn)",
    "MEASURED_PROPERTY": "growth inhibition",
    "UNIT_TAG": "%",
    "VALUE_OBSERVED": -2
  },
  {
    "COMPOUND": "CC(=O)N1C(=O)/C(=C\\C(=O)c2ccc([N+](=O)[O-])cc2)c2ccccc21",
    "MEASURED_PROPERTY": "growth inhibition",
    "UNIT_TAG": "%",
    "VALUE_OBSERVED": 35
  },
  {
    "COMPOUND": "CNc1nc(C)nc2c1cnn2-c1ccc([N+](=O)[O-])cc1",
    "MEASURED_PROPERTY": "growth inhibition",
    "UNIT_TAG": "%",
    "VALUE_OBSERVED": 17
  },
  {
    "COMPOUND": "CCOC(=O)C1=C(C)NC(C)=C(C(=O)OCC)C1c1ccc(C)cc1",
    "MEASURED_PROPERTY": "growth inhibition",
    "UNIT_TAG": "%",
    "VALUE_OBSERVED": -27
  },
  {
    "COMPOUND": "O=C(N/N=C\\c1c(Cl)cccc1Cl)N/N=C/c1c(Cl)cccc1Cl",
    "MEASURED_PROPERTY": "growth inhibition",
    "UNIT_TAG": "%",
    "VALUE_OBSERVED": 19
  },
  {
    "COMPOUND": "COc1cc(CNc2ccc(C(C)C)cc2)cc(OC)c1OC",
    "MEASURED_PROPERTY": "growth inhibition",
    "UNIT_TAG": "%",
    "VALUE_OBSERVED": -6
  },
  {
    "COMPOUND": "BrCc1ccccc1C(c1ccccc1)c1ccccc1",
    "MEASURED_PROPERTY": "growth inhibition",
    "UNIT_TAG": "%",
    "VALUE_OBSERVED": 6
  },
  {
    "COMPOUND": "Cc1cccc(/C=N\\NC(=S)N2CCCCC2)n1",
    "MEASURED_PROPERTY": "growth inhibition",
    "UNIT_TAG": "%",
    "VALUE_OBSERVED": -17
  },
  {
    "COMPOUND": "CSc1s[s+]c(SC)c1-c1ccccc1",
    "MEASURED_PROPERTY": "growth inhibition",
    "UNIT_TAG": "%",
    "VALUE_OBSERVED": 10
  },
  {
    "COMPOUND": "CC(=O)OCC1OC(O[C@H]2C=C[C@@H](C(=O)OCc3ccccc3)n3c(=O)n(-c4ccccc4)c(=O)n32)C(OC(C)=O)C(OC(C)=O)C1OC(C)=O (stereo partly drawn)",
    "MEASURED_PROPERTY": "growth inhibition",
    "UNIT_TAG": "%",
    "VALUE_OBSERVED": 3
  },
  {
    "COMPOUND": "O=C(CNS(=O)(=O)Cc1ccccc1)NNc1ccccc1",
    "MEASURED_PROPERTY": "growth inhibition",
    "UNIT_TAG": "%",
    "VALUE_OBSERVED": 4
  },
  {
    "COMPOUND": "CCCCCCSc1nc(COC(=O)NC)c(COC(=O)NC)n1C",
    "MEASURED_PROPERTY": "growth inhibition",
    "UNIT_TAG": "%",
    "VALUE_OBSERVED": -6
  },
  {
    "COMPOUND": "CCOC(=O)[C@]1(Br)CC[C@@]1(Br)C(=O)OCC",
    "MEASURED_PROPERTY": "growth inhibition",
    "UNIT_TAG": "%",
    "VALUE_OBSERVED": -6
  }
]
